The reported measurements were obtained from patent US20220227874A1.

- System name: EGFRvIII expressed on cells (F98-npEGFRvIII, NCI-H522-EGFRvIII, U87-KO-EGFRvIII) (human)
- Assay details: flow cytometry, F98-EGFRvIII cells; 2nd Ab only 258
Recorded measurements of MFI, one per entry
Form: value (number only, do not type unit).

Problem: Fill in reported MFI for this entry: 11F10 (antibody, V domains shown) VH: QVTLKESGPVLVKPIETLTLTCTVCGFSLSNPRMGVSWIRQPPGKALEWLGHIFSSDEKSYRLFLRSRLSISKDTSKSQVVLTMTNMDPVDTATYYCARDSSDYEGYFDYWGQGTLVTVSS VL: EIVMTQSPATLSVSPGERTTLSCRASQSVGSNLAWYQQKPGQAPRLLIYGASTRASGVPARFSGSGSGTEFTLTISSLQSEDFAVYSCQEYNNWPFTFGQGTKVEIK
Solution: 3280

Problem: Assign MFI to the following record: 32A10 (antibody, V domains shown) VH: QVTLKESGPVLVKPTETLTLTCTVSGFSLSNARMGVSWIRQPPGKALEWLAHIFSTDEKSIRRSLRSRLTLSKDTSKSQVVLTMTNMDPVDTATYFCARDSSNYEGYFDYWGQGTLVTVSS VL: EVVMTQSPATLSVSPGERVTLSCRASQSVSSNFAWYQQRPGQAPRLLLYGATTRATGLPGRFSGSGSGTENILTISSLQSEDFAIYFCQQYKDWPFTFGPGSKVDIK
Solution: 3350

Problem: Please look at this binder and report its MFI: 42G9 (antibody, V domains shown) VH: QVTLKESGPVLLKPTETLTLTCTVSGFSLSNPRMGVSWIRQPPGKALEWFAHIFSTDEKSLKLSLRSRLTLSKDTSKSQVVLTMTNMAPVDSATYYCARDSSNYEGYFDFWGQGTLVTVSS VL: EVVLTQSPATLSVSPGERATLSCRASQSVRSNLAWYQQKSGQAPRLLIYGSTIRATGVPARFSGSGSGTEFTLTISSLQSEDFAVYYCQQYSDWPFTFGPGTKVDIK
Solution: 3250
